B1: Serine/threonine-protein kinase A-Raf, residues 21 to 89; numbered along this chain, P10398 (parent)
chain: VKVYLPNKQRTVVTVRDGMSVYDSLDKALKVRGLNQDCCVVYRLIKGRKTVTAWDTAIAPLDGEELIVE

- Variants of: B1
- PROCEDURE_DETAILS: abundance fitness (aPCA) (normalised: wild type 0, dead -1); higher = more abundant; growth selection in yeast, the domain comes from the species named
- APPLIED_CONDITIONS: Homo sapiens
REPORTED_PROPERTY: abundance fitness
Give your answer as a number; write no unit.

[Q] Identify measured abundance fitness associated with `VKVYLPNKQRTVVTVRDGMSVYDSLDKALKVRGLNCDCCVVYRLIKGRKTVTAWDTAIAPLDGEELIVE`
[A] -0.206

[Q] Provide one value: measured abundance fitness of `VKVYLPNKQRTVVTVRDGMSVYDSLDKALKVRGGNQDCCVVYRLIKGRKTVTAWDTAIAPLDGEELIVE`
[A] -1.1

[Q] Identify measured abundance fitness associated with `VKVYLPNKQRTVVTVRDGMSVYDSLRKALKVRGLNQDCCVVYRLIKGRKTVTAWDTAIAPLDGEELIVE`
[A] 0.023

[Q] Quick one: give measured abundance fitness for `VKVYLPNKQRTVVTVRDGMSVYDSLDKALKVRGLNQDCCVVYRLIKGRKTVDAWDTAIAPLDGEELIVE`
[A] -0.978

[Q] Note abundance fitness for the variant shown: `VKVRLPNKQRTVVTVRDGMSVYDSLDKALKVRGLNQDCCVVYRLIKGRKTVTAWDTAIAPLDGEELIVE`
[A] 0

[Q] Respond only with abundance fitness recorded for `VKVYLPNKQRTVVLVRDGMSVYDSLDKALKVRGLNQDCCVVYRLIKGRKTVTAWDTAIAPLDGEELIVE`
[A] -0.172

[Q] Give the value of abundance fitness reported for the following: `VKVYLPNKQRTVVTVRDGMSVYDSLDKALKVRGLNQDCCVVYRLRKGRKTVTAWDTAIAPLDGEELIVE`
[A] -0.098

[Q] State its abundance fitness for this variant: `VKVYLPNKQRTVVTVRDGMSVYDSLDKALKVRGLNQDCCVVYRLIKGRKTGTAWDTAIAPLDGEELIVE`
[A] -0.662

[Q] Respond only with abundance fitness recorded for `VKVYLPNKQRTVVTVRDGMSVYDSLDKALKVRGLNQDCCVVYRLIKGRKTVTAWDTAIAPLDGKELIVE`
[A] -0.295

[Q] Provide only the value of recorded abundance fitness for `VKVYLPNKQRTVVTVRDGMSVYDSLDKALKVRGLNQDCCVVYRLIKGRKTVTAWDTAIAPLDDEELIVE`
[A] -0.187

[Q] Respond only with abundance fitness recorded for `VKVYLPNKQGTVVTVRDGMSVYDSLDKALKVRGLNQDCCVVYRLIKGRKTVTAWDTAIAPLDGEELIVE`
[A] -0.158

[Q] Identify the reported abundance fitness for the following entry. `VKVYLPNKQRTVVTVRDGMSVYDSLDKALHVRGLNQDCCVVYRLIKGRKTVTAWDTAIAPLDGEELIVE`
[A] -0.83

[Q] Check the records and state abundance fitness for `VKVYLPNKQRTVVDVRDGMSVYDSLDKALKVRGLNQDCCVVYRLIKGRKTVTAWDTAIAPLDGEELIVE`
[A] -0.205

[Q] Quote abundance fitness reported for `VKVYLPNKQRTVVTVRDGMSVYNSLDKALKVRGLNQDCCVVYRLIKGRKTVTAWDTAIAPLDGEELIVE` please.
[A] -0.294

[Q] Given the variant `VKVYLPNKQRTVVTVRDGMSVYDSLDKTLKVRGLNQDCCVVYRLIKGRKTVTAWDTAIAPLDGEELIVE` , write its reported abundance fitness.
[A] -0.206

[Q] Please report abundance fitness for the following variant: `VKVYLPNKQRTVVTVRDGMSVYDSLDKALCVRGLNQDCCVVYRLIKGRKTVTAWDTAIAPLDGEELIVE`
[A] -0.583

[Q] Output abundance fitness of `VKVYLPNKPRTVVTVRDGMSVYDSLDKALKVRGLNQDCCVVYRLIKGRKTVTAWDTAIAPLDGEELIVE`
[A] -0.876

[Q] Give the reported abundance fitness for this variant. `VKVYLPNKQRTVVTVRDGMSVYDSLDKALKVRGLNQDCCVRYRLIKGRKTVTAWDTAIAPLDGEELIVE`
[A] -0.559

[Q] Give a short answer stating reported abundance fitness for `VKVYLPNKQRTVVTVRDGGSVYDSLDKALKVRGLNQDCCVVYRLIKGRKTVTAWDTAIAPLDGEELIVE` .
[A] -0.216

[Q] Indicate the recorded abundance fitness value for this variant: `VKVYLPNKQRTVVTVRDGMSVYDSLDKALKVRGLNQDCCVVYRLIKGWKTVTAWDTAIAPLDGEELIVE`
[A] -0.535

[Q] Identify measured abundance fitness associated with `VKVYLPNKQRTVVTVRDGMSVYDSLDKALKVRGLNQICCVVYRLIKGRKTVTAWDTAIAPLDGEELIVE`
[A] -0.39

[Q] Supply measured abundance fitness of `VKVYLPNKQRTVVTVRDGMSVYDSLDKALKVRGLNQDCCVVYRLAKGRKTVTAWDTAIAPLDGEELIVE` in your reply.
[A] -0.318

[Q] Tell me its abundance fitness given `VDVYLPNKQRTVVTVRDGMSVYDSLDKALKVRGLNQDCCVVYRLIKGRKTVTAWDTAIAPLDGEELIVE` as the entry.
[A] -0.416

[Q] Check the records and state abundance fitness for `VKVYLPNKQRTVVTVRDGMSVYDSLDKALKVRGLNQDCCVVYRLIKLRKTVTAWDTAIAPLDGEELIVE`
[A] -0.873

[Q] Fill in reported abundance fitness for this entry: `VFVYLPNKQRTVVTVRDGMSVYDSLDKALKVRGLNQDCCVVYRLIKGRKTVTAWDTAIAPLDGEELIVE`
[A] -0.466

[Q] Look up abundance fitness of `VKVYLPNKQRTVVTVRDGMSVYDSLDKALKVRGLNQDCCVVYRLIKGRKTVTAWDTAIAPLDGEDLIVE` and report it.
[A] -0.136

[Q] Return abundance fitness (reported value) for this variant: `VKVYLPNKQRTVVTVRDGMSVYDSLDKALKVRGLNQDCCVVYRLIKGRKTVTAWDTAIAPLPGEELIVE`
[A] -0.095

[Q] Supply abundance fitness value. Item: `VKVYLPNKQRTVVTVRDGMSVYDSLDKALKVRGLDQDCCVVYRLIKGRKTVTAWDTAIAPLDGEELIVE`
[A] -0.132

[Q] State its abundance fitness: `VKVYLPNKQRTVVTVRDGMSVSDSLDKALKVRGLNQDCCVVYRLIKGRKTVTAWDTAIAPLDGEELIVE`
[A] 0.094

[Q] Retrieve abundance fitness measured for `VKVYLPNKQRTVVTVRDGMSVYDSLDKALKVRGLNQDCCVVYRLQKGRKTVTAWDTAIAPLDGEELIVE` and print it.
[A] -0.078

[Q] Supply recorded abundance fitness for `VKVYLPNKQRTVVTARDGMSVYDSLDKALKVRGLNQDCCVVYRLIKGRKTVTAWDTAIAPLDGEELIVE` here.
[A] -0.017

[Q] Read the entry `VKVYLPNKQRTVVFVRDGMSVYDSLDKALKVRGLNQDCCVVYRLIKGRKTVTAWDTAIAPLDGEELIVE` and write its reported abundance fitness.
[A] -0.01

[Q] Consider the variant `VKVYLPNKQRTVVTVRDGMSVYDILDKALKVRGLNQDCCVVYRLIKGRKTVTAWDTAIAPLDGEELIVE` . State its measured abundance fitness.
[A] 0.027

[Q] Please list abundance fitness recorded for the variant `VKVYLPNKQRTVVTVRDGMSVYDSLDKASKVRGLNQDCCVVYRLIKGRKTVTAWDTAIAPLDGEELIVE`
[A] -0.558

[Q] # return recorded abundance fitness for input `VKVYLPNKQRTVVTVRDGMSVYDSLDKALKVRGLNQDCCVVYRLIKGRKTKTAWDTAIAPLDGEELIVE`
[A] -0.001

[Q] Given the variant `VKVYLPNKQRTVVTVRDGMSVYDSLDKALKVRGLNQDCCVMYRLIKGRKTVTAWDTAIAPLDGEELIVE` , write its reported abundance fitness.
[A] -0.711

[Q] Please list abundance fitness recorded for the variant `VKVYLPNKQRTVVTVRDGMSVYDSLDKALKVRGLNQDCCVVYRLIKNRKTVTAWDTAIAPLDGEELIVE`
[A] -0.665

[Q] Look up abundance fitness of `VKVYLPNKQRTVVTVRDGMSVYDSLDKALKVRGLNQDCCVVYRLGKGRKTVTAWDTAIAPLDGEELIVE` and report it.
[A] -0.198

[Q] Provide only the value of recorded abundance fitness for `VKVYLPNKQRTVVTVRDCMSVYDSLDKALKVRGLNQDCCVVYRLIKGRKTVTAWDTAIAPLDGEELIVE`
[A] -0.261

[Q] Give abundance fitness for `VKVYLPNKQRTVVTVRDGMSVYDSLDKALKVRGLNQDCCVVYRLIKGRKTVTAFDTAIAPLDGEELIVE`
[A] -0.89

[Q] Indicate the recorded abundance fitness value for this variant: `VKVYLPNKQRTVVTVRDGMSVYDSLDKALKVRGLNQDCCVVYRLIKGRKTVTAWDTAIARLDGEELIVE`
[A] -0.067

[Q] Supply measured abundance fitness of `VKVYLPNKQRTVVTVRDGMSVYGSLDKALKVRGLNQDCCVVYRLIKGRKTVTAWDTAIAPLDGEELIVE` in your reply.
[A] -0.388

[Q] Quick one: give measured abundance fitness for `VKVYLPNKQRTVVTVRDGMSVYDSLDKALKVRGLNQDCCVVYRLIKGRKTVTAWKTAIAPLDGEELIVE`
[A] -0.347

[Q] Report measured abundance fitness; entry is `VKVYLPNKQRTVVTVRDGMSVYDSLDKALKVRGLNQDCCVVYRLIHGRKTVTAWDTAIAPLDGEELIVE`
[A] -0.259

[Q] Report abundance fitness, nothing else, for this variant: `VKVYLPNKQRTVVTVRDGMSVYDSLDKAFKVRGLNQDCCVVYRLIKGRKTVTAWDTAIAPLDGEELIVE`
[A] -0.191

[Q] Answer with the recorded abundance fitness of `VKVYLPNKQRTVVTVRDGMSVYDSLDKALKVRGLNQDCCVVYRLIKGRKTVTAWDTANAPLDGEELIVE` only.
[A] -0.858

[Q] State its abundance fitness for this variant: `VKVYLPNKQRTVVTVRDGMSVYDSLDKALKVRGLNQDCCVVYRLIKGRKTVTAWDTAMAPLDGEELIVE`
[A] -0.004

[Q] Supply abundance fitness value. Item: `VKVYLPNKQRTVVTVRDGMSVYDSLDKALKVRGLNQDCCVVYRMIKGRKTVTAWDTAIAPLDGEELIVE`
[A] 0.069

[Q] State, in one line, measured abundance fitness of `VKVYLPNKQRTVVTVRCGMSVYDSLDKALKVRGLNQDCCVVYRLIKGRKTVTAWDTAIAPLDGEELIVE`
[A] -0.418

[Q] Identify measured abundance fitness corresponding to `VKVYLPNKQRTVVTVRDGMSVYDSLDKALKVRGLNQDHCVVYRLIKGRKTVTAWDTAIAPLDGEELIVE`
[A] -0.019

[Q] Give abundance fitness for the following variant: `VKVYLPNKQRTVVTVRDGMSVYDSLDKALKVRGLNQDCCVVYRLIKSRKTVTAWDTAIAPLDGEELIVE`
[A] -0.734

[Q] Please look at this variant and report its abundance fitness: `VKVYLPNKQRTVVTVCDGMSVYDSLDKALKVRGLNQDCCVVYRLIKGRKTVTAWDTAIAPLDGEELIVE`
[A] -0.028

[Q] Give the measured abundance fitness for `VKVYLPNKQRTVVTVRDGMSVYDSLCKALKVRGLNQDCCVVYRLIKGRKTVTAWDTAIAPLDGEELIVE`
[A] 0.063

[Q] # return recorded abundance fitness for input `VKVYLPNKQRTVVTVRDGMSVYDSLGKALKVRGLNQDCCVVYRLIKGRKTVTAWDTAIAPLDGEELIVE`
[A] -0.1

[Q] Given the variant `VKVYLPNKQRTVVTVRDGMSVYDSLDKALKVRGLNQDCCVVYRLIKGRKTVTAWDTAIAPLFGEELIVE` , write its reported abundance fitness.
[A] -0.608

[Q] Answer with reported abundance fitness of `VKVYLPNKQRKVVTVRDGMSVYDSLDKALKVRGLNQDCCVVYRLIKGRKTVTAWDTAIAPLDGEELIVE`
[A] -0.371

[Q] Could you please provide reported abundance fitness for `VKVYLPNKQVTVVTVRDGMSVYDSLDKALKVRGLNQDCCVVYRLIKGRKTVTAWDTAIAPLDGEELIVE` ? Thanks!
[A] 0.187

[Q] Return the recorded abundance fitness value; entry: `VKVYLPNKQRTVVTVRDGMSVYDSLDKALKVRGLWQDCCVVYRLIKGRKTVTAWDTAIAPLDGEELIVE`
[A] -0.866

[Q] Could you please provide reported abundance fitness for `AKVYLPNKQRTVVTVRDGMSVYDSLDKALKVRGLNQDCCVVYRLIKGRKTVTAWDTAIAPLDGEELIVE` ? Thanks!
[A] -0.684

[Q] Tell me measured abundance fitness for `VKVYLPNKVRTVVTVRDGMSVYDSLDKALKVRGLNQDCCVVYRLIKGRKTVTAWDTAIAPLDGEELIVE` please.
[A] -0.035

[Q] Tell me measured abundance fitness for `VKVYLPNAQRTVVTVRDGMSVYDSLDKALKVRGLNQDCCVVYRLIKGRKTVTAWDTAIAPLDGEELIVE` please.
[A] -0.042

[Q] Please report the measured abundance fitness for `VKVYLPNKQRTVVTVRDGMSVYDSLDKALKVRGLNQDCCSVYRLIKGRKTVTAWDTAIAPLDGEELIVE`
[A] -0.321

[Q] Please list abundance fitness recorded for the variant `VKVYLPNKQRTVVTVRDGMFVYDSLDKALKVRGLNQDCCVVYRLIKGRKTVTAWDTAIAPLDGEELIVE`
[A] -0.844
